// data source = paper PMC6413121

# System: LLC-PK11 (pig kidney epithelial)
# Method: in vitro
# Format: cell-based
# Condition Details: concentration causing 50% growth inhibition; read-out: Cytotoxic activity IC50, LLC-PK11
pIC50: −log10 of the molar value.

# Compound, pIC50
records = [
    ("COc1cccc2c1C(=O)c1c(O)c3c(c(O)c1C2=O)C[C@@](O)(C(=O)CO)C[C@@H]3O[C@H]1C[C@H](N)[C@H](O)[C@H](C)O1 [Doxorubicin, reference compound]", 5.89),
]

----------
# Tested on: P. falciparum D6 (chloroquine sensitive) strain
# Method: microbe, parasite or virus in culture
# Type: cell-based, Plasmodium falciparum
# Condition Details: Plasmodium falciparum, D6, read-out: Chloroquine-Sensitive (D6)-Strain IC50
pIC50: −log10 of the molar value.

# Molecule, pIC50
rows = [
    ("CCN(CC)CCCC(C)Nc1ccnc2cc(Cl)ccc12 (stereo not shown) [Chloroquine, reference compound]", 7.52),
]

----------
# Method: in vitro
# Assay type: cell-based
# Condition Details: African green monkey, highest concentration tested […]; read-out: Cytotoxicity to Vero Cells IC50

# Molecule, IC50
rows = [
    ("CC(=O)OC1C2OC2C(C)C(=O)C(C)CC=CC2C(O)C(C)=C(C)C3C(Cc4ccccc4)NC(=O)C213 (stereo not drawn) [Compound 3]", "> 4.76 µg/mL"),
    ("C=C1C(C)C2C(Cc3ccccc3)NC(=O)C23C(C=CCC(C)C(=O)C(C)(O)C2OC2C3OC(C)=O)C1O (stereo not drawn) [Compound 2]", "> 4.76 µg/mL"),
    ("CC(=O)OC1C2OC2C(C)(O)C(=O)C(C)CC=CC2C(O)C(C)=C(C)C3C(Cc4ccccc4)NC(=O)C213 (stereo not drawn) [Compound 1]", "> 4.76 µg/mL"),
]

----------
# System: KB (human epidermal carcinoma)
# Method: in vitro
# Type: cell-based
# Condition Details: concentration causing 50% growth inhibition; read-out: Cytotoxic activity IC50, KB
# Experimental: In vitro cytotoxicity was determined against a panel of mammalian cells that included kidney fibroblast (Vero), kidney epithelial (LLC-PK11), malignant melanoma (SK-MEL), oral epidermal carcinoma (KB), breast ductal carcinoma (BT-549), and ovary carcinoma (SK-OV-3) cells Doxorubicin was used as a positive control.
pIC50: −log10 of the molar value.
Readout Label: pIC50

# Compound, Recorded Result
rows = [
    ("COc1cccc2c1C(=O)c1c(O)c3c(c(O)c1C2=O)C[C@@](O)(C(=O)CO)C[C@@H]3O[C@H]1C[C@H](N)[C@H](O)[C@H](C)O1 [Doxorubicin, reference compound]", 5.67),
]

----------
# Tested on: SK-OV-3 (human ovary carcinoma)
# Method: in vitro
# Assay type: cell-based
# Condition Details: concentration causing 50% growth inhibition; read-out: Cytotoxic activity IC50, SK-OV-3
pIC50: −log10 of the molar value.

# Compound, Target Desc, pIC50
measured = [
    ("COc1cccc2c1C(=O)c1c(O)c3c(c(O)c1C2=O)C[C@@](O)(C(=O)CO)C[C@@H]3O[C@H]1C[C@H](N)[C@H](O)[C@H](C)O1 [Doxorubicin, reference compound]", "SK-OV-3 (human ovary carcinoma)", 5.83),
]

----------
# System: BT-549 (human breast carcinoma, ductal)
# Method: in vitro
# Type: cell-based
# Condition Details: concentration causing 50% growth inhibition; read-out: Cytotoxic activity IC50, BT-549

# Compound, Target Desc, IC50 (nM)
records = [
    ("COc1cccc2c1C(=O)c1c(O)c3c(c(O)c1C2=O)C[C@@](O)(C(=O)CO)C[C@@H]3O[C@H]1C[C@H](N)[C@H](O)[C@H](C)O1 [Doxorubicin, reference compound]", "BT-549 (human breast carcinoma, ductal)", 1830),
]

----------
# Method: in vitro
# Assay type: cell-based, human
# Condition Details: human; concentration causing 50% growth inhibition; read-out: Cytotoxic activity IC50, SK-OV-3
pIC50: −log10 of the molar value.

# Compound, pIC50
measured = [
    ("CC(=O)OC1C2OC2C(C)(O)C(=O)C(C)CC=CC2C(O)C(C)=C(C)C3C(Cc4ccccc4)NC(=O)C213 (stereo not drawn)", "< 5.00"),
    ("C=C1C(C)C2C(Cc3ccccc3)NC(=O)C23C(C=CCC(C)C(=O)C(C)(O)C2OC2C3OC(C)=O)C1O (stereo not drawn)", "< 5.00"),
    ("CC(=O)OC1C2OC2C(C)C(=O)C(C)CC=CC2C(O)C(C)=C(C)C3C(Cc4ccccc4)NC(=O)C213 (stereo not drawn)", "< 5.00"),
]

----------
Reported pIC50 is given for each of the following compounds.
# Method: in vitro
# Type: cell-based, human
# Condition Details: human; concentration causing 50% growth inhibition; read-out: Cytotoxic activity IC50, KB
pIC50: −log10 of the molar value.

# Compound, pIC50
measured = [
    ("CC(=O)OC1C2OC2C(C)(O)C(=O)C(C)CC=CC2C(O)C(C)=C(C)C3C(Cc4ccccc4)NC(=O)C213 (stereo not drawn) [Compound 1]", "< 5.00"),
    ("C=C1C(C)C2C(Cc3ccccc3)NC(=O)C23C(C=CCC(C)C(=O)C(C)(O)C2OC2C3OC(C)=O)C1O (stereo not drawn) [Compound 2]", "< 5.00"),
    ("CC(=O)OC1C2OC2C(C)C(=O)C(C)CC=CC2C(O)C(C)=C(C)C3C(Cc4ccccc4)NC(=O)C213 (stereo not drawn) [Compound 3]", "< 5.00"),
]

----------
// reported pIC50 for each item listed
# System: P. falciparum W2 (chloroquine resistant) strain
# Method: microbe, parasite or virus in culture
# Format: cell-based, Plasmodium falciparum
# Condition Details: Plasmodium falciparum, W2, read-out: Chloroquine-Resistant (W2)-Strain IC50
pIC50: −log10 of the molar value.
Readout Label: pIC50

# Compound, Target Desc, Readout Label, Recorded Result
rows = [
    ("CCN(CC)CCCC(C)Nc1ccnc2cc(Cl)ccc12 (stereo not shown) [Chloroquine, reference compound]", "P. falciparum W2 (chloroquine resistant) strain", "pIC50", 6.51),
    ("CC(=O)OC1C2OC2C(C)C(=O)C(C)CC=CC2C(O)C(C)=C(C)C3C(Cc4ccccc4)NC(=O)C213 (stereo not shown)", "P. falciparum W2 (chloroquine resistant) strain", "pIC50", 6.72),
    ("C=C1C(C)C2C(Cc3ccccc3)NC(=O)C23C(C=CCC(C)C(=O)C(C)(O)C2OC2C3OC(C)=O)C1O (stereo not shown)", "P. falciparum W2 (chloroquine resistant) strain", "pIC50", 7.40),
    ("CC(=O)OC1C2OC2C(C)(O)C(=O)C(C)CC=CC2C(O)C(C)=C(C)C3C(Cc4ccccc4)NC(=O)C213 (stereo not shown)", "P. falciparum W2 (chloroquine resistant) strain", "pIC50", 7.30),
]

----------
# Method: in vitro
# Format: cell-based, pig
# Condition Details: pig; concentration causing 50% growth inhibition; read-out: Cytotoxic activity IC50, LLC-PK11
// IC50 lookup, one value per entry

# Compound, IC50
rows = [
    ("CC(=O)OC1C2OC2C(C)(O)C(=O)C(C)CC=CC2C(O)C(C)=C(C)C3C(Cc4ccccc4)NC(=O)C213 (stereo not drawn)", "> 10 µM"),
    ("CC(=O)OC1C2OC2C(C)C(=O)C(C)CC=CC2C(O)C(C)=C(C)C3C(Cc4ccccc4)NC(=O)C213 (stereo not drawn)", "> 10 µM"),
    ("C=C1C(C)C2C(Cc3ccccc3)NC(=O)C23C(C=CCC(C)C(=O)C(C)(O)C2OC2C3OC(C)=O)C1O (stereo not drawn)", "8.4 µM"),
]
